Target: human plasmin (Homo sapiens, UniProt P00747)
Sequence (P00747 581-810 limits assumed): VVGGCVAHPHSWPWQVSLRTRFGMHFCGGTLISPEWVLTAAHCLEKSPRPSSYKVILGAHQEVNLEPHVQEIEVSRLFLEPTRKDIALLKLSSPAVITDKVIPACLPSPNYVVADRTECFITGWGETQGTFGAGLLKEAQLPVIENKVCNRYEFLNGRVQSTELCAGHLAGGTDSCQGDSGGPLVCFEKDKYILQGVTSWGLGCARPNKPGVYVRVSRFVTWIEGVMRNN
Sequence (P00747 97-580 partner limits assumed): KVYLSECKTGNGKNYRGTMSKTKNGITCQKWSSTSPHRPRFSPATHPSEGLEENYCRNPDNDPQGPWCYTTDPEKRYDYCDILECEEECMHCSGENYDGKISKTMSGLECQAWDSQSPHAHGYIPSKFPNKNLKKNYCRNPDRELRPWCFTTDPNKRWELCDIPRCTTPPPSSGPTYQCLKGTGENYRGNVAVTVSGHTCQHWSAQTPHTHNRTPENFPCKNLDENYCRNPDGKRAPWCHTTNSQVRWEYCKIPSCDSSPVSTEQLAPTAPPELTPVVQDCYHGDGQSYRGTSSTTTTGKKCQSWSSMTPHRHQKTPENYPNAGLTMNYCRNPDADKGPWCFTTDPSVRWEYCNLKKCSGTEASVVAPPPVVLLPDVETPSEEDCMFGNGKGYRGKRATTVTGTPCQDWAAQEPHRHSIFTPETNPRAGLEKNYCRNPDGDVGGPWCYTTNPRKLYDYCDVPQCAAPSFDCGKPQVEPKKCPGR
Structures can show the parent of a compound that is named as a salt.
Under this convention, T denotes IC50 strictly below 1 nM and F denotes IC50 at or above 1 nM.

Input Cc1nc(C(=O)NC2CCC2)ccc1-c1ccc(C[C@H](NC(=O)[C@H]2CC[C@H](CN)CC2)C(=O)Nc2ccc3cn[nH]c3c2)cc1 [Example 34, hydrochloride] ; condition: IC50 strictly below 1 nM. Does it hold?
T

Input Cc1nc(C(=O)NC(C)C)ccc1-c1ccc(C[C@H](NC(=O)[C@H]2CC[C@H](CN)CC2)C(=O)Nc2ccc3c(=O)[nH][nH]c3c2)cc1 [Example 39, hydrochloride] ; condition: IC50 strictly below 1 nM. Does it hold?
F

Input Cc1nc(C(=O)NC(C)C(F)(F)F)ccc1-c1ccc(C[C@H](NC(=O)[C@H]2CC[C@H](CN)CC2)C(=O)Nc2ccc3cn[nH]c3c2)cc1 (some centres unmarked) [Example 35, hydrochloride] ; condition: IC50 strictly below 1 nM. Does it hold?
F

Input Cc1nc(C(=O)NC(C)C)ccc1-c1ccc(C[C@H](NC(=O)[C@H]2CC[C@H](CN)CC2)C(=O)Nc2ccc3[nH]c(=O)[nH]c3c2)cc1 [Example 40, hydrochloride] ; condition: IC50 strictly below 1 nM. Does it hold?
F

Input Cc1nc(C(=O)NC(C)C)ccc1-c1ccc(C[C@H](NC(=O)[C@H]2CC[C@H](CN)CC2)C(=O)Nc2cc(Cl)c3oc(=O)[nH]c3c2)cc1 [Example 38, hydrochloride] ; condition: IC50 strictly below 1 nM. Does it hold?
T
